meta.source: ChEMBL document CHEMBL5058577

Test system: Fibroblast
Test: Multiplex assay against human fibroblast
Type: toxicity, cell-based
Settings: 12 h, 1 µM, compound concentration 1 uM, replicate 2
metricName: Population Membrane Permeable-Phenotype (%)
Express the result in % but write the number alone.

Below: 5 compounds and their reported Population Membrane Permeable-Phenotype (%).
compound	valueUnits	resultNumber
CC(C)COc1ccc(CNC(=O)N(Cc2ccc(F)cc2)C2CCN(C)CC2)cc1	%	7
Cc1onc(-c2ccccc2Cl)c1C(=O)N(C)c1ccc(Cl)cc1	%	6
CC(=O)Nc1cccc2c1c(Sc1ccc(Cl)cc1)c(C)n2CC(=O)O	%	14
Cc1cccc(NC(=O)CN2CCC(c3ccccn3)CC2)c1.Cl.Cl	%	2
CCc1cc2cc(NS(=O)(=O)c3ccc(C#N)cc3)ccc2n(CC)c1=O	%	9

Tell me measured Population Membrane Permeable-Phenotype (%) for Cc1noc(-c2ccc(-c3ccc(CC(=O)O)cc3)cc2)c1NC(=O)O[C@H](C)c1ccccc1Cl please.
5

Tell me measured Population Membrane Permeable-Phenotype (%) for O=C(NCCN1CCC(n2c(=O)[nH]c3cc(Cl)ccc32)CC1)c1ccc(F)cc1 [HALOPEMIDE] please.
10

Tell me measured Population Membrane Permeable-Phenotype (%) for O=C1[C@H](Cc2ccc(O)cc2)N2C(=O)CCN(C(=O)NCc3ccccc3)[C@H]2CN1Cc1cccc2ccccc12 please.
5

Tell me measured Population Membrane Permeable-Phenotype (%) for Cc1cnc(-c2cc(N3CCN(C(=O)CCS(C)(=O)=O)CC3)ncc2Cl)c(C)c1 please.
7

Tell me measured Population Membrane Permeable-Phenotype (%) for CCCCC(=O)N(Cc1ccc(-c2ccccc2-c2nnn[nH]2)cc1)[C@H](C(=O)O)C(C)C please.
8

Tell me measured Population Membrane Permeable-Phenotype (%) for CN[C@@H](C)C(=O)N[C@H](C(=O)N1CCC[C@H]1C(=O)Nc1snnc1-c1ccccc1)C1CCCCC1 please.
6

Tell me measured Population Membrane Permeable-Phenotype (%) for Cl.N=C(N)NC(=O)Cc1c(Cl)cccc1Cl [GUANFACINE HYDROCHLORIDE] please.
3

Tell me measured Population Membrane Permeable-Phenotype (%) for Cl.NCCc1ccc(O)c(O)c1 [DOPAMINE HYDROCHLORIDE] please.
4
